These entries and their values trace back to the RNAGym collection of RNA variant scans (doi:10.1093/nar/gkz1192).

B1: CPEB3 Ribozyme (parent)
chain: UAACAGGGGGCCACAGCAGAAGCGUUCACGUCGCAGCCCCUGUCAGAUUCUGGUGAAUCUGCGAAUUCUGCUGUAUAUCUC

- Variants of: B1
- assay-protocol: self-cleavage, relative activity (ratio to wild type); higher = more cleavage; in vitro, sequencing
For each of the variants below, state its self-cleavage.
Answers are plain numbers.

These solved cases illustrate the format of a correct answer.
Input line: Which self-cleavage value belongs to C11A A18C ?
Output line: 0.4

Input line: # input variant: A20U G52A ; wanted: its self-cleavage
Output line: 0.41

Input line: Reported self-cleavage, variant G7A A28C : ____
Output line: 0.2

Lab note: next variant to report on.
Input line: Any idea what self-cleavage was measured for G10A A15U ?
Output line: 0.2
